Target or system: ZNF512 (UniProt Q96ME7)
Sequence (Q96ME7 whole entry, looked up): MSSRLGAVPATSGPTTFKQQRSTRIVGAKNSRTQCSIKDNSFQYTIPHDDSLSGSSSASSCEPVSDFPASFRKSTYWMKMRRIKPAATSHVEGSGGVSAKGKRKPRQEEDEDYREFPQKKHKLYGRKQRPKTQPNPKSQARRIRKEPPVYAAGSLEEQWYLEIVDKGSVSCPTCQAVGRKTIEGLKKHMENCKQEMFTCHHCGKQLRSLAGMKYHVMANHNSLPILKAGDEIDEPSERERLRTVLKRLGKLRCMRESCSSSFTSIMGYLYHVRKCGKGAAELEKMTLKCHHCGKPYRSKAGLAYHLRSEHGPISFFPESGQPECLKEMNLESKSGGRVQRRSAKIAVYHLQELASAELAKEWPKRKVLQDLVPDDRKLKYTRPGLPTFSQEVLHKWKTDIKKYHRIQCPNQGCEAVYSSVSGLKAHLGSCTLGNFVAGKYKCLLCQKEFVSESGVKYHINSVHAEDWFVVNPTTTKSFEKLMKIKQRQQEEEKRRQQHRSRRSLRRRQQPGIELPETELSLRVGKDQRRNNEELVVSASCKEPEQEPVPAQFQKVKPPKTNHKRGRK
Experiment: log2 fold change, soluble protein after heating vs DMSO (PISA); higher = thermal stabilisation; K562 cells, 10 uM, 30 min; active = over 0.2 and 3.5 SD of the protein, either way, in both replicates (recomputed)
About 7,900 targets were measured; listed, in parts, are those with a hit and a random draw of the rest. About 0.6% of all pairs of compound and target were hits.
Quantity name: log2 fold change
Give bare numbers.

Consider the worked cases shown below.
COc1cc(C(=O)O)ccc1NC(=O)[C@@H]1N[C@@H](CC(C)(C)C)[C@](C#N)(c2ccc(Cl)cc2F)[C@H]1c1cccc(Cl)c1F : 0.3
CN1CC[C@H](c2c(O)cc(O)c3c(=O)cc(-c4ccccc4Cl)oc23)[C@H](O)C1 : -0.002
Cn1cc(-c2ccc3c(c2)CCN3C(=O)Cc2cccc(C(F)(F)F)c2)c2c(N)ncnc21 : -0.86

Okay, here is my list. What is log2 fold change for each of these?
1. CCCCN(Cc1ccc(C(=O)NO)cc1)C(=O)Nc1ccccc1
2. NC(=O)c1ccc2nc(-c3ccc(Oc4ccc(Cl)cc4)cc3)[nH]c2c1
3. O=C1NC(=O)C(c2cnc3ccccn23)=C1c1cn2c3c(cc(F)cc13)CN(C(=O)N1CCCCC1)CC2
4. COc1cc(Nc2ncc3c(n2)-c2ccc(Cl)cc2C(c2c(F)cccc2OC)=NC3)ccc1C(=O)O
5. CC[C@H](C)n1cc(C)c2c(C(=O)NCc3c(C)cc(C)[nH]c3=O)cc(-c3ccc(N4CCNCC4)nc3)cc21
6. O=C1NC(=NCc2cccs2)S/C1=C\c1ccc2ncccc2c1
7. NC(=O)c1cnc(N[C@@H]2CCCC[C@@H]2N)nc1Nc1cccc(-n2nccn2)c1
8. CCn1c(C(=O)N(C2CC2)C2CC2)cc2c3c(ncn3C)c(Nc3cc(C)n(C)n3)nc21

output:
1: -0.038; 2: -0.014; 3: -0.023; 4: -0.286; 5: -0.002; 6: 0.102; 7: -0.005; 8: 0.128
